- System: HCC1937
- PROTOCOL TEXT: normalised response (% of control), CellTox Green; higher = less cell death (100 = DMSO, 0 = benzethonium chloride kill control)
- SETTINGS: incubation time: 72 h
MEASURE: normalised response (%)
Just the number in %, nothing appended.

Before answering, review these 8 worked examples.
[[record]]
molecule = "CO[C@H]1/C=C\\C=C(/C)C(=O)NC2=CC(=O)C(NCCN(C)C)=C(C[C@@H](C)C[C@H](OC)[C@H](O)[C@@H](C)/C=C(\\C)[C@@H]1OC(N)=O)C2=O [Alvespimycin] (1000 nM)"
unit = "%"
numeric_readout = 34.5

[[record]]
molecule = "COc1cc2nccc(Oc3ccc(NC(=O)C4(C(=O)Nc5ccc(F)cc5)CC4)cc3)c2cc1OC [Cabozantinib] (100 nM)"
unit = "%"
numeric_readout = 120

[[record]]
molecule = "Cc1ccc(-n2nc(C(C)(C)C)cc2NC(=O)Nc2ccc(OCCN3CCOCC3)c3ccccc23)cc1 [Doramapimod] (10000 nM)"
unit = "%"
numeric_readout = 79.6

[[record]]
molecule = "Oc1nc(-c2ccc(C(F)(F)F)cc2)nc2c1CSCC2 [XAV-939] (100 nM)"
unit = "%"
numeric_readout = 104

[[record]]
molecule = "Cn1c(CCCC(=O)O)nc2cc(N(CCCl)CCCl)ccc21 [Bendamustine] (100 nM)"
unit = "%"
numeric_readout = 88.6

[[record]]
molecule = "CCC1(c2ccc(N)cc2)CCC(=O)NC1=O (stereo not given) [Aminoglutethimide] (100 nM)"
unit = "%"
numeric_readout = 102

[[record]]
molecule = "C#Cc1cccc(Nc2ncnc3cc(OCCOC)c(OCCOC)cc23)c1 [Erlotinib] (10000 nM)"
unit = "%"
numeric_readout = 81.4

[[record]]
molecule = "CO[C@H]1/C=C\\C=C(/C)C(=O)NC2=CC(=O)C(NCCN(C)C)=C(C[C@@H](C)C[C@H](OC)[C@H](O)[C@@H](C)/C=C(\\C)[C@@H]1OC(N)=O)C2=O [Alvespimycin] (100 nM)"
unit = "%"
numeric_readout = 118


Look up and report measured normalised response (HCC1937) for the following molecule: Oc1nc(-c2ccc(C(F)(F)F)cc2)nc2c1CSCC2 [XAV-939] (1000 nM)
114

Look up and report measured normalised response (HCC1937) for the following molecule: C=C(c1ccc(C(=O)O)cc1)c1cc2c(cc1C)C(C)(C)CCC2(C)C [Bexarotene] (10000 nM)
105

Look up and report measured normalised response (HCC1937) for the following molecule: Cn1c(CCCC(=O)O)nc2cc(N(CCCl)CCCl)ccc21 [Bendamustine] (10000 nM)
90.7

Look up and report measured normalised response (HCC1937) for the following molecule: COc1cc([C@@H]2c3cc4c(cc3[C@@H](O[C@@H]3O[C@@H]5CO[C@@H](C)O[C@H]5[C@H](O)[C@H]3O)[C@H]3COC(=O)[C@H]23)OCO4)cc(OC)c1O [Etoposide] (10000 nM)
106

Look up and report measured normalised response (HCC1937) for the following molecule: COc1cc2nccc(Oc3ccc(NC(=O)C4(C(=O)Nc5ccc(F)cc5)CC4)cc3)c2cc1OC [Cabozantinib] (1000 nM)
102

Look up and report measured normalised response (HCC1937) for the following molecule: Clc1ccc(Nc2nnc(Cc3ccncc3)c3ccccc23)cc1 [Vatalanib] (1000 nM)
134

Look up and report measured normalised response (HCC1937) for the following molecule: O=P1(NCCCl)OCCCN1CCCl (stereo not given) [Ifosfamide] (1000 nM)
70.1
